system: Mast/stem cell growth factor receptor Kit (Homo sapiens), P10721 [T670I]; assay: Inhibition of TEL fused c-KIT T670I mutant (unknown origin) transfected in mouse BAF3 cells assessed as growth inhibition after 72 hrs by CCK8 assay; type: cell-based
Sequence (P10721 whole entry T670I, the tested form may be a part): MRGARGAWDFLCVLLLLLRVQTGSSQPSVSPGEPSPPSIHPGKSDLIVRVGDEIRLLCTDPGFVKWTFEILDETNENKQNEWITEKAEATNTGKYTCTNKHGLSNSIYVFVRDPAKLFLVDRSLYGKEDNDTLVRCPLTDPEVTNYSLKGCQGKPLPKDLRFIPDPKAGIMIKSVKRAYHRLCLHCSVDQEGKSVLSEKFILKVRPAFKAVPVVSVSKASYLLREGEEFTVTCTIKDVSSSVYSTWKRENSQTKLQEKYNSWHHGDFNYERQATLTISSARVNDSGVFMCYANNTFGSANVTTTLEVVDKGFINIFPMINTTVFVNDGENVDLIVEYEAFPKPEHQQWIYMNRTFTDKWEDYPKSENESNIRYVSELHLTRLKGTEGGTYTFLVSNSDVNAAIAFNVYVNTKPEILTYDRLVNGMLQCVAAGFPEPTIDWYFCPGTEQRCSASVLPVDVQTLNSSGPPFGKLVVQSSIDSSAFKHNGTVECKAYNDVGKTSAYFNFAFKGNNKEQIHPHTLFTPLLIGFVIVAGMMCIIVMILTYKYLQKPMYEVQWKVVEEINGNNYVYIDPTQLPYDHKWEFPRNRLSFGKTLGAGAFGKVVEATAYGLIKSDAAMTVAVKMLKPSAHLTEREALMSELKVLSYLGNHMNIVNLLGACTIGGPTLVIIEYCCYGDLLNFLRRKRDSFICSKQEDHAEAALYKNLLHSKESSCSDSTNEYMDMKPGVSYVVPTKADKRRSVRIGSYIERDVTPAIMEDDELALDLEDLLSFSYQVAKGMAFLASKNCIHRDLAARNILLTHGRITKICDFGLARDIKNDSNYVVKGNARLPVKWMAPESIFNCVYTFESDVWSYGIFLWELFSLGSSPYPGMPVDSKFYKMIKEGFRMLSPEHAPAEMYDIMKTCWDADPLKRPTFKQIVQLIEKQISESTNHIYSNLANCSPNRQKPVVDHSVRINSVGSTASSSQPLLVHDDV
So I've got a bunch of compounds here, and I need their GI50 values.
Answers are plain numbers, in nM.

Could you please provide reported GI50 for Cc1cccc(NC(=O)CC(=O)Nc2ccc3c(/C=C/c4ccccn4)n[nH]c3c2)c1 ? Thanks!
170

Could you please provide reported GI50 for COc1cccc(NC(=O)CC(=O)Nc2ccc3c(/C=C/c4ccccn4)n[nH]c3c2)c1 ? Thanks!
234

Could you please provide reported GI50 for O=C(CC(=O)Nc1cc(F)ccc1F)Nc1ccc2c(/C=C/c3ccccn3)n[nH]c2c1 ? Thanks!
847

Could you please provide reported GI50 for Cn1cc(-c2n[nH]c3cc(NC(=O)CC(=O)Nc4ccc(Cl)c(C(F)(F)F)c4)ccc23)cn1 ? Thanks!
23

Next up:
Could you please provide reported GI50 for O=C(CC(=O)Nc1ccc2c(/C=C/c3ccccn3)n[nH]c2c1)Nc1cccc(Cl)c1 ? Thanks!
111
